Cited source: patent US20180064808A1

# System: HCT116
# Measurement Protocol: Combination screen CRC cell lines (CellTiter-Glo)
# Type: cell-based, human
# Conditions: Homo sapiens, HCT-116, 72 h, agent alone, 3 days, read-out: IC50 monotherapy
Metric: IC50 (µM)
Your answer is read as µM, so omit the unit and give the number.

Fill in the blank: the reported IC50 of "O=c1[nH]cc(F)c(=O)[nH]1" is ____.
2.5
